Listing of recorded solubility by entry.
assay.text: Measured solubility in buffer, LC-MS/MS
Assay type: physicochemical
cond: aqueous buffer, thermodynamic from solid; pH 7.4, 50 mM phosphate buffer, 16-24 hours, room temperature; read-out: Solubility pH 7.4
Answer format: value, then unit.

Solved entries (count: 2):
CC(=O)[C@H]1CC[C@H]2[C@@H]3CC[C@H]4C[C@](C)(OC(=O)COC(=O)CN5CCOCC5)CC[C@]4(C)[C@H]3CC[C@]12C [Compound 200] : 29 µg/mL
CC(=O)[C@H]1CC[C@H]2[C@@H]3CC[C@H]4C[C@](C)(OC(=O)CO)CC[C@]4(C)[C@H]3CC[C@]12C [Compound 201] : 33 µg/mL

// query Value lookup for solubility; key = CC(=O)[C@H]1CC[C@H]2[C@@H]3CC[C@H]4C[C@](C)(O)CC[C@]4(C)[C@H]3CC[C@]12C [ganaxolone, Ganaxolone]
// result 4 µg/mL
